src = patent US6559161B1

IC50 values for the molecules below.
Test system: SK-MEL-28 (ATCC HTB-72, human melanoma)
ASSAY TEXT: cytotoxicity, growth inhibition of SK-MEL-28 cells, Crystal Violet staining
Format: cell-based
EXPERIMENTAL PARAMETERS: Homo sapiens, SK-MEL-28, 72 h, approximate IC50, three days of incubation at 37° C.
ASSAY READOUT: IC50

smiles_code=COc1cc([N+](=O)[O-])c2c3c(c4ccccc4nc13)C=CN2 target_or_test_system="SK-MEL-28 (ATCC HTB-72, human melanoma)" result="0.03 µM"
smiles_code=COc1cc(NC(C)=O)c2c3c(c4ccccc4nc13)C=CN2 target_or_test_system="SK-MEL-28 (ATCC HTB-72, human melanoma)" result="0.03 µM"

====

Test system: P-388D1 (ATCC CCL-46, lymphoid neoplasm from DBA/2 mouse)
ASSAY TEXT: cytotoxicity, growth inhibition of P-388D1 cells in culture
Assay type: cell-based
EXPERIMENTAL PARAMETERS: Mus musculus, P388D1, 72 h; approximate IC50; three days of incubation at 37° C.; growth vs control wells
ASSAY READOUT: IC50 (µM)

smiles_code=COc1cc([N+](=O)[O-])c2c3c(c4ccccc4nc13)C=CN2 assay_readout=IC50 measured_number=0.34
smiles_code=COc1cc(NC(C)=O)c2c3c(c4ccccc4nc13)C=CN2 assay_readout=IC50 measured_number=1.64
